Reference source for all entries: PubChem BioAssay (NCI)

# Tested on: A549 NSCLC
# experiment_summary: NCI tumour cell line growth inhibition, 48 h
For each of the compounds below, state its TGI.

[Q] State the recorded TGI for this entry: CCOC(=O)c1c(SCCN2CCOCC2)n(-c2ccccc2)c(=S)n(-c2ccccc2)c1=O
[A] > 100 µM

[Q] Next record, please: O=C1CNS(=O)(=O)N1
[A] > 100 µM

[Q] Next record, please: Cc1cc(O)c(-c2cc(O)c(C)cc2O)cc1O
[A] 49.5 µM

[Q] Next record, please: O=[N+]([O-])c1ccc2c(c1)c(N=NC(=S)Nc1ccc(Cl)cc1)c(O)n2CN1CCOCC1
[A] 20.8 µM

[Q] Next record, please: Cc1cccc(N(CC(=O)O)S(=O)(=O)c2ccccc2)c1
[A] > 100 µM

[Q] Next record, please: CCNCCNc1cc(-c2ccc(C#N)cc2)c(C#N)c2nc3ccccc3n12
[A] 6.39 µM

[Q] Next record, please: CC(=O)n1c(=O)c2cc3c(=O)n(-c4cccc(C#N)c4)c(=O)c3cc2c1=O
[A] > 100 µM

[Q] Next record, please: CC1c2ccccc2N=C2SC(=S)N3CCN=C3N21 (configuration not stated)
[A] > 100 µM

[Q] Next record, please: C[C@H]1[C@H](C)CC[C@]2(C(=O)OC3OC(CO)C(O)C(O)C3O)CC[C@]3(C)C(=CC[C@@H]4[C@@]5(C)C[C@H]6OC(=O)c7cc(O)c(O)c(O)c7-c7c(cc(O)c(O)c7O)C(=O)O[C@@H]6C(CO)(CO)[C@@H]5CC[C@]43C)[C@H]12 (some centres not stated)
[A] > 100 µM

[Q] Next record, please: O=C1C(C(O)(C(F)(F)F)C(F)(F)F)CCC1C(O)(C(F)(F)F)C(F)(F)F (configuration not stated)
[A] > 65.4 µM

[Q] Next record, please: CCCCCCCCCCCCCC[n+]1cccc(C(N)=O)c1
[A] 18.4 µM

[Q] Next record, please: Cc1c(C(=O)/C=C/c2ccccc2[N+](=O)[O-])[n+](=O)c2ccccc2n1[O-]
[A] 34.3 µM

[Q] Next record, please: C/C(=C\CO)CC/C=C(\C)CNc1ccc([N+](=O)[O-])cc1
[A] > 100 µM

[Q] Next record, please: Cc1ccc(-n2nc(C(C)(C)C)cc2NC(=O)NCc2cc(F)ccc2Oc2ccc3c(cnn3CCO)c2)cc1
[A] > 100 µM

[Q] Next record, please: Nc1ccc(-c2nn3c(COc4ccc(Cl)cc4)nnc3s2)cc1
[A] > 100 µM

[Q] Next record, please: Cc1cccc(C)c1N1C(=O)C(=O)C(c2nc3ccccc3s2)C(=Nc2cccc3c(=O)[nH][nH]c(=O)c23)C1=O (configuration not stated)
[A] > 100 µM

[Q] Next record, please: O=c1[nH]c2cc([N+](=O)[O-])ccc2nc1/C(=N\Nc1ccccc1)C(O)c1ccc2c(c1)OCO2 (configuration not stated)
[A] > 100 µM

[Q] Next record, please: c1cnn2ncc(-c3ccnc(Nc4ccc5c(c4)OCCO5)n3)c2c1
[A] 3.07 µM

[Q] Next record, please: O=C1c2cccc3cccc(c23)C(=O)N1O
[A] > 100 µM

[Q] Next record, please: CN(C)C(=S)Nc1nnc(Nc2ccccc2)s1
[A] > 100 µM

[Q] Next record, please: COc1cc(C(O)c2ccc3c(c2)OCO3)cc(OC)c1OC (configuration not stated)
[A] > 100 µM

[Q] Next record, please: CCN(CCCl)c1cc(CN(C)C)cc(NC(=O)c2ccc(C(=O)Nc3cccc(CN(C)C)c3)cc2)c1
[A] 14.5 µM

[Q] Next record, please: COc1ccc(NC(C)c2ccncc2)cc1 (configuration not stated)
[A] > 100 µM

[Q] Next record, please: Cc1cccc(C)c1N1C(=O)C(=O)C(c2nc3ccccc3s2)/C(=N/NC(=O)NN)C1=O (configuration not stated)
[A] > 100 µM

[Q] Next record, please: CCOC(=O)C(NC(=O)Nc1ccc(Cl)cc1)(OC)C(F)(F)F (configuration not stated)
[A] > 100 µM

[Q] Next record, please: O=S1(=O)c2cnccc2NC(=NCc2ccccc2)N1c1ccccc1
[A] > 100 µM

[Q] Next record, please: CCOC(=O)c1ccc(Nc2nc3ccc(C(F)(F)F)cc3nc2C(=O)OCC)cc1
[A] > 100 µM

[Q] Next record, please: COc1nc2c(N3CCCC3)nc(N3CCNCC3)nc2nc1NCc1ccccc1
[A] 5.34 µM

[Q] Next record, please: COc1ccc(-c2c(C3=NCCCN3)nnn2-c2ccc([N+](=O)[O-])cc2)cc1
[A] > 100 µM

[Q] Next record, please: CCCCCCC(C)CCCCCCCCCCC(=O)O (configuration not stated)
[A] > 100 µM

[Q] Next record, please: Nc1ccccc1C(=O)C(Br)C(Br)c1ccc2c(c1)OCO2 (configuration not stated)
[A] 57.3 µM

[Q] Next record, please: COc1ccc(F)c(F)c1C(=O)c1cnc(NC2CCN(S(C)(=O)=O)CC2)nc1N
[A] > 26.5 µM

[Q] Next record, please: O=C(CC1(O)C(=O)Nc2c(Cl)ccc(Cl)c21)c1ccc(Cl)cc1Cl (configuration not stated)
[A] 47.2 µM

[Q] Next record, please: CC(=O)[CH-]C(=O)c1ccccc1.CC(=O)[CH-]C(=O)c1ccccc1.CC1(C)OCC(C2OC3OC(C)(C)OC3C2[O-])O1.CC[O-].[Ti+4] (configuration not stated)
[A] 40 µM

[Q] Next record, please: c1ccc2[nH]c(CNc3ccc(C4C[Se]N=N4)cc3)nc2c1 (configuration not stated)
[A] > 100 µM

[Q] Next record, please: O=[N+]([O-])/C(Cl)=C(\NCCN/C(C(Cl)=C(Cl)Cl)=C(/Cl)[N+](=O)[O-])C(Cl)=C(Cl)Cl
[A] > 100 µM

[Q] Next record, please: CN1CCN(C2=C(Cl)C3(OCCS3)C(F)(F)C2(F)F)CC1 (configuration not stated)
[A] > 100 µM
